system: U-87 MG; assay: 3H thymidine proliferation assay, U-87 MG; assay type: cell-based, human; conditions: Homo sapiens, U-87 MG, read-out: EC50, U-87 MG, 3H thymidine method, 72 h incubation
Task for the reader: assign each of the following compounds its reported pEC50.
Numbers only, as −log10 of the molar value.

CC[C@H](C)[C@H](NC(=O)[C@H]1CCCCN1C)C(=O)N(C)[C@H](C[C@@H](OC(C)=O)c1nc(C(=O)N[C@@H](Cc2ccc(N)cc2)CC(C)C(=O)O)cs1)C(C)C (some centres unmarked) [Compound 36]; 7.82
CC[C@H](C)[C@H](NC(=O)[C@H]1CCCCN1C)C(=O)N(C)[C@H](C[C@@H](OC)c1nc(C(=O)N[C@H](CC(=O)OC)Cc2ccccc2)cs1)C(C)C [Compound 25]; 6.57
CC[C@H](C)[C@H](NC(=O)[C@H]1CCCCN1C)C(=O)N(C)[C@H](C[C@@H](OC)c1nc(C(=O)N[C@@H](Cc2ccccc2)C(=O)N[C@@H](C)C(=O)OC)cs1)C(C)C [Compound 24]; 7.74
CCCC(NC(=O)c1csc([C@@H](C[C@H](C(C)C)N(C)C(=O)[C@@H](NC(=O)[C@H]2CCCCN2C)[C@@H](C)CC)OC)n1)C(=O)OC (some centres unmarked) [Compound 17]; 7.92

Take each entry in turn and give its pEC50.
1. CC[C@H](C)[C@H](NC(=O)[C@H]1CCCCN1C)C(=O)N(C)[C@H](C[C@@H](OC)c1nc(C(=O)N[C@@H](C)C(=O)N[C@@H](Cc2ccccc2)C(=O)OC)cs1)C(C)C [Compound 26a]
2. CC[C@H](C)[C@H](NC(=O)[C@H]1CCCCN1C)C(=O)N(COC(=O)CC(C)C)[C@H](C[C@@H](OC(C)=O)c1nc(C(=O)N[C@@H](Cc2ccc(N)cc2)CC(C)C(=O)O)cs1)C(C)C (some centres unmarked) [Compound 54]
3. CC[C@H](C)[C@H](NC(=O)[C@H]1CCCCN1C)C(=O)N(C)[C@H](C[C@@H](OC)c1nc(C(=O)N[C@H](CCC(=O)OC)Cc2ccccc2)cs1)C(C)C [Compound 26]
4. CC[C@H](C)[C@H](NC(=O)[C@H]1CCCCN1C)C(=O)N(C)[C@H](C[C@@H](OC)c1nc(C(=O)NC(Cc2ccccc2)C[C@H](C)C(=O)O)cs1)C(C)C (some centres unmarked) [Compound 15]

### Response
[7.15, 9.96, 8.28, 9.38]

###

Task for the reader: assign each of the following molecules its reported EC50.
tested on: Nomo-1; assay: ATP luminescence proliferation assay, Nomo-1; format: cell-based, human; details: ATP luminescence, Nomo-1, 72 h incubation; read-out: EC50 Nomo-1 (72 h)
Numbers only, in nM.

Some solved entries appear below for comparison.
CCC[C@H](NC(=O)[C@H](Cc1ccccc1)NC(=O)c1csc([C@@H](C[C@H](C(C)C)N(C)C(=O)[C@@H](NC(=O)[C@H]2CCCCN2C)[C@@H](C)CC)OC)n1)C(=O)OC; 5.2
CC[C@H](C)[C@H](NC(=O)[C@H]1CCCCN1C)C(=O)N(COC(=O)CC(C)C)[C@H](C[C@@H](O)c1nc(C(=O)N[C@@H](Cc2ccccc2)C(=O)OC)cs1)C(C)C; 0.82
CC[C@H](C)[C@H](NC(=O)[C@H]1CCCCN1C)C(=O)N(C)[C@H](C[C@@H](OC)c1nc(C(=O)N[C@@H](Cc2ccccc2)C(=O)OC)cs1)C(C)C; 3.1

### Prompt Which value of EC50 has been reported for CC[C@H](C)[C@H](NC(=O)[C@H]1CCCCN1C)C(=O)N(C)[C@H](C[C@@H](OC)c1nc(C(=O)N[C@@H](Cc2ccc(N)cc2)CC(C)C(=O)O)cs1)C(C)C (stereo partly shown) in the records?
### Response 7.4
